Kindly supply the reported mortality % 24, with TFNA-AM values for the records listed here.
Test system: Anopheles stephensi
testName: Anopheles stephensi treated well plate contact test: knockdown and mortality
Type: in vivo
conditionNotes: test compound 20 ppm plus 2 ppm TFNA-AM, after 24 hours
Report the value in % with no unit label.

Query CN/C(=N\[N+](=O)[O-])NCc1cnc(Cl)s1 [Clothianidin] yields mortality % 24, with TFNA-AM of 100

Query CC1(C)C(C=C(Cl)Cl)C1C(=O)OC(C#N)c1cccc(Oc2ccccc2)c1 (stereo not drawn) [Cypermethrin] yields mortality % 24, with TFNA-AM of 100

Query OC(c1ccc(Cl)cc1)(c1ccc(Cl)cc1)C(Cl)(Cl)Cl [Dicofol] yields mortality % 24, with TFNA-AM of 80

Query O=C1C=C(N(Cc2ccc(Cl)nc2)CC(F)F)CO1 [Flupyradifurone] yields mortality % 24, with TFNA-AM of 50

Query CO/C=C(/C(=O)OC)c1ccccc1Oc1nc(C(C)(C)C)ns1 [Compound 48] yields mortality % 24, with TFNA-AM of 100

Query O=[N+]([O-])c1cc(C(F)(F)F)c(Cl)c([N+](=O)[O-])c1Nc1ncc(C(F)(F)F)cc1Cl [Fluazinam] yields mortality % 24, with TFNA-AM of 100

Query Cc1c(COC(=O)[C@@H]2[C@H](/C=C(\Cl)C(F)(F)F)C2(C)C)cccc1-c1ccccc1 (racemic) [Bifenthrin] yields mortality % 24, with TFNA-AM of 100

Query CCOC(=O)NCCOc1ccc(Oc2ccccc2)cc1 [Fenoxycarb] yields mortality % 24, with TFNA-AM of 80

Query CO/C=C(/C(=O)OC)c1ccccc1COc1cc(C(F)(F)F)nc(OC(C)C)n1 [Fluacrypyrim] yields mortality % 24, with TFNA-AM of 100

----------
Kindly supply the reported mortality % 24, with TFNA-AM values for the records listed here.
System: Anopheles stephensi
testName: Anopheles stephensi treated well plate contact test: knockdown and mortality
Assay type: in vivo
conditionNotes: test compound 2 ppm plus 2 ppm TFNA-AM, after 24 hours
Report the value in % with no unit label.

Query CNC(=O)Oc1ccccc1OC(C)C [Propoxur] yields mortality % 24, with TFNA-AM of 100

Query CC(C)=C[C@@H]1[C@@H](C(=O)O[C@H](C#N)c2cccc(Oc3ccccc3)c2)C1(C)C (relative stereo) [d-d, trans cyphenothrin] yields mortality % 24, with TFNA-AM of 100

Query CO/C=C(/C(=O)OC)c1ccccc1Oc1cc(C(F)(F)F)ccn1 [Compound 49] yields mortality % 24, with TFNA-AM of 90

Query CO/C=C(/C(=O)OC)c1ccccc1COc1cccc(C(F)(F)F)n1 [Picoxystrobin] yields mortality % 24, with TFNA-AM of 80

Query CCC(Nc1ncnc(C)c1Cl)c1ccc(OC(F)F)cc1 (centres unmarked) [Diflumetorim] yields mortality % 24, with TFNA-AM of 90

Query Cc1c(COC(=O)[C@@H]2[C@H](/C=C(\Cl)C(F)(F)F)C2(C)C)cccc1-c1ccccc1 (racemic) [Bifenthrin] yields mortality % 24, with TFNA-AM of 100

Query CC(C)c1cc(Oc2ccccc2)cc(C(C)C)c1NC(=S)NC(C)(C)C [Diafenthiuron] yields mortality % 24, with TFNA-AM of 100

Query O=c1c(-c2cccc(C(F)(F)F)c2)c([O-])[n+](Cc2cncnc2)c2ccccn12 [Triflumizopyrim] yields mortality % 24, with TFNA-AM of 50

Query CC(COc1ccc(Oc2ccccc2)cc1)Oc1ccccn1 (centres unmarked) [Pyriproxyfen] yields mortality % 24, with TFNA-AM of 60

Query CNC(=O)Oc1cccc2c1OC(C)(C)O2 [Bendiocarb] yields mortality % 24, with TFNA-AM of 100

Query Nc1nc(N)nc(NC2CC2)n1 [Cyromazine] yields mortality % 24, with TFNA-AM of 20

Query COP(=S)(OC)Oc1ccc([N+](=O)[O-])c(C)c1 [Fenitrothion] yields mortality % 24, with TFNA-AM of 100

Query C/C=C(\C)C(=O)O[C@H]1C[C@@H](OC(C)=O)[C@@]2(C(=O)OC)CO[C@H]3[C@@H](O)[C@@](C)([C@]45O[C@@]4(C)[C@H]4C[C@@H]5O[C@@H]5OC=C[C@@]54O)[C@H]4[C@]1(CO[C@]4(O)C(=O)OC)[C@@H]32 [Azadirachtin] yields mortality % 24, with TFNA-AM of 20

Query N#Cc1ccc(CC(=NNC(=O)Nc2ccc(OC(F)(F)F)cc2)c2cccc(C(F)(F)F)c2)cc1 (mixture of isomers) [Metaflumizone] yields mortality % 24, with TFNA-AM of 100

Query CC(C)N1C(=O)N(c2ccccc2)CS/C1=N\C(C)(C)C [Buprofezin] yields mortality % 24, with TFNA-AM of 100

Query CO/C=C(/C(=O)OC)c1ccccc1Oc1ncc(C(F)(F)F)s1 [Compound 54] yields mortality % 24, with TFNA-AM of 100

Query CN/C(=N\[N+](=O)[O-])NCc1cnc(Cl)s1 [Clothianidin] yields mortality % 24, with TFNA-AM of 100

----------
Tested on: Anopheles stephensi
testName: Anopheles stephensi treated well plate contact test: knockdown and mortality
Type: in vivo
conditionNotes: test compound 2 ppm plus 2 ppm TFNA-AM, after 24 hours
// NB: equality with 80% counts as Condition not met; only mortality % 24, with TFNA-AM strictly below is Condition met

Exercise: Would you kindly verify if mortality % 24, with TFNA-AM of OC(c1ccc(Cl)cc1)(c1ccc(Cl)cc1)C(Cl)(Cl)Cl [Dicofol] is strictly less than 80%?
Solution: Condition met

Exercise: Would you kindly verify if mortality % 24, with TFNA-AM of O=[N+]([O-])c1cc(C(F)(F)F)c(Cl)c([N+](=O)[O-])c1Nc1ncc(C(F)(F)F)cc1Cl [Fluazinam] is strictly less than 80%?
Solution: Condition met

Exercise: Would you kindly verify if mortality % 24, with TFNA-AM of Cc1ccc(/N=C/N(C)/C=N/c2ccc(C)cc2C)c(C)c1 [Amitraz] is strictly less than 80%?
Solution: Condition met

Exercise: Would you kindly verify if mortality % 24, with TFNA-AM of CCOC(=O)CC(SP(=S)(OC)OC)C(=O)OCC (stereo not shown) [Malathion] is strictly less than 80%?
Solution: Condition not met

Exercise: Would you kindly verify if mortality % 24, with TFNA-AM of CCOc1ccc(C(C)(C)COCc2cccc(Oc3ccccc3)c2)cc1 [Etofenprox] is strictly less than 80%?
Solution: Condition not met

Exercise: Would you kindly verify if mortality % 24, with TFNA-AM of CN(C(=O)c1ccccc1)c1cccc(C(=O)Nc2c(Br)cc(C(F)(C(F)(F)F)C(F)(F)F)cc2C(F)(F)F)c1F [Broflanilide] is strictly less than 80%?
Solution: Condition not met

----------
Kindly supply the reported mortality % 24, with TFNA-AM values for the records listed here.
System: Anopheles stephensi
testName: Anopheles stephensi treated well plate contact test: knockdown and mortality
Format: in vivo
conditionNotes: test compound 20 ppm plus 2 ppm TFNA-AM, after 24 hours
Report the value in % with no unit label.

Bench note, Anopheles stephensi: CN/C(=N/CC1CCOC1)N[N+](=O)[O-] (centres unmarked) , mortality % 24, with TFNA-AM reads 100

Bench note, Anopheles stephensi: CCOc1cc(C(C)(C)C)ccc1C1COC(c2c(F)cccc2F)=N1 (centres unmarked) , mortality % 24, with TFNA-AM reads 60

Bench note, Anopheles stephensi: `CO/C=C(/C(=O)OC)c1ccccc1Oc1ncc(C(F)(F)F)s1` , mortality % 24, with TFNA-AM reads 100

Bench note, Anopheles stephensi: CN(C(=O)c1ccccc1)c1cccc(C(=O)Nc2c(Br)cc(C(F)(C(F)(F)F)C(F)(F)F)cc2C(F)(F)F)c1F [Broflanilide] , mortality % 24, with TFNA-AM reads 100

Bench note, Anopheles stephensi: `Cc1ccc(/N=C/N(C)/C=N/c2ccc(C)cc2C)c(C)c1` , mortality % 24, with TFNA-AM reads 20

Bench note, Anopheles stephensi: `CON=C(C(=O)OC)c1ccccc1CON=C(C)c1cccc(C(F)(F)F)c1` , mortality % 24, with TFNA-AM reads 100

Bench note, Anopheles stephensi: `CO/C=C(/C(=O)OC)c1ccccc1COc1cccc(C(F)(F)F)n1` , mortality % 24, with TFNA-AM reads 100

Bench note, Anopheles stephensi: N#Cc1ccc(CC(=NNC(=O)Nc2ccc(OC(F)(F)F)cc2)c2cccc(C(F)(F)F)c2)cc1 (mixture of isomers) , mortality % 24, with TFNA-AM reads 100

----------
Tested on: Anopheles stephensi
testName: Anopheles stephensi treated well plate contact test: knockdown and mortality
Type: in vivo
conditionNotes: test compound 2 ppm plus 2 ppm TFNA-AM, after 48 hours
Kindly supply the reported mortality % 48, with TFNA-AM values for the records listed here.
Report the value in % with no unit label.

Query CN(C(=O)c1ccccc1)c1cccc(C(=O)Nc2c(Br)cc(C(F)(C(F)(F)F)C(F)(F)F)cc2C(F)(F)F)c1F [Broflanilide] yields mortality % 48, with TFNA-AM of 100

Query `O=C1C=C(N(Cc2ccc(Cl)nc2)CC(F)F)CO1` yields mortality % 48, with TFNA-AM of 20

Query `CON=C(C(=O)OC)c1ccccc1CON=C(C)c1cccc(C(F)(F)F)c1` yields mortality % 48, with TFNA-AM of 70

Query `C/C=C(\C)C(=O)O[C@H]1C[C@@H](OC(C)=O)[C@@]2(C(=O)OC)CO[C@H]3[C@@H](O)[C@@](C)([C@]45O[C@@]4(C)[C@H]4C[C@@H]5O[C@@H]5OC=C[C@@]54O)[C@H]4[C@]1(CO[C@]4(O)C(=O)OC)[C@@H]32` yields mortality % 48, with TFNA-AM of 20

Query `CO/C=C(/C(=O)OC)c1ccccc1Oc1cc(C(F)(F)F)ccn1` yields mortality % 48, with TFNA-AM of 90

Query `O=[N+]([O-])NC1=NCCN1Cc1ccc(Cl)nc1` yields mortality % 48, with TFNA-AM of 100

Query CCOc1cc(C(C)(C)C)ccc1C1COC(c2c(F)cccc2F)=N1 (centres unmarked) yields mortality % 48, with TFNA-AM of 40

Query `OC(c1ccc(Cl)cc1)(c1ccc(Cl)cc1)C(Cl)(Cl)Cl` yields mortality % 48, with TFNA-AM of 20

// data source = patent US20260206755A1
